target.system: T1, CTLA-4 on human T lymphocytes (PBMC, CD3+ T cells) (human, UniProt P16410 36-223)
T1 sequence (looked up): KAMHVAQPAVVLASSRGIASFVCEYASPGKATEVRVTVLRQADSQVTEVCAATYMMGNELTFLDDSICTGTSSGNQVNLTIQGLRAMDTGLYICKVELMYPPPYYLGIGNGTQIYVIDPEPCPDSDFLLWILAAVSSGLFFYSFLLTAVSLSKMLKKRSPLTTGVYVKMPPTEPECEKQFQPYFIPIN
experiment.notes: cell-based or functional assay
Hi there, I'd appreciate the recorded IL-2 secretion, pg/ml, at 1.1 ug/ml, N = 1 for every entry that follows.
Provide only the numeric value, understood in pg/mL.

### Prompt Which IL-2 secretion, pg/ml, at 1.1 ug/ml, N = 1 reading was recorded for the binder 40C4C6 fully human CTLA-4 antibody (human IgG1, kappa) (antibody, V domains shown, also called mAb09; mAb009) VH: QVQLVESGGGVVQPGRSLRLSCAASGFTFSSYGMHWVRQAPGKGLEWVAVIWYDGRNKYYADSVKGRFTISRDNSKNTLYLQMNSLRAEDTAVYYCARASGSYSYYFDYWGQGTLVTVSS VL: DIQMTQSPSSLSASVGGRVTITCRASQSISSFLNWYQHELGKAPKLLIYGASSLQSGVPSRFSGSGSGTDFTLTISSLQPEDFATYYCQQTYSTPFTFGPGTKVDIK ?
### Response 3200

### Prompt Which IL-2 secretion, pg/ml, at 1.1 ug/ml, N = 1 reading was recorded for the binder 92C8B6 fully human CTLA-4 antibody (human IgG1, kappa) (antibody, V domains shown, also called mAb42; mAb042) VH: QVQLVESGGGVVQPGRSLRLSCAASGFTFSNFGMHWVRQAPGKGLEWVAVIWYDGSNKYYADSVKGRFTISRDNSKNTLFLQMNGLRAEDTAVYYCAKGGILMAGTLDYWGQGTLVTVSS VL: DIQMTQSPSSLSASVGDRVTITCRASQSVSTYLNWYQQKPGKAPKLLIYAASSFQSGVPSRFSGSGSGTDFTLTISSLQPEDFATYFCQQSYSTPFTFGPGTKVDIK ?
### Response 3610

### Prompt Which IL-2 secretion, pg/ml, at 1.1 ug/ml, N = 1 reading was recorded for the binder 97A8D1 fully human CTLA-4 antibody (human IgG1, kappa) (antibody, V domains shown, also called mAb49; mAb049) VH: QVQLVESGGGVVQPGRSLRLSCVASGFTFNNYGMNWVRQAPGKGLEWVAVIWYGGRNKFYADSVKGRFTISRDNSKNTLYLEMNSLRAEDTAVYYCARADWGGWFDPWGQGTLVTVSS VL: EIVLTQSPGTLSLSPGERATLSCRASQSVSSTYLAWYQQKPGQAPRLLIHGAFSRATGIPDRFSGSGSGPDFTLTISRLEPEDFAVYYCQQYGTSPFTFGPGTKVDIK ?
### Response 2660

### Prompt Which IL-2 secretion, pg/ml, at 1.1 ug/ml, N = 1 reading was recorded for the binder 31C12F3 fully human CTLA-4 antibody (human IgG1, kappa) (antibody, V domains shown, also called mAb010) VH: QVQLVESGGGVVQPGRSLILSCAASGFTFSSYGMHWVRQAPGKGLEWVAVVWYDGSNKYYADSVKGRFTISRDNSKNTLYLQMSSLRAEDTAVYYCARGGIVVPGLFEYWGQGSLVTVSS VL: DIQMTQSPSSLSASVGDRVAITCRTSQSISNLLNWYQQKPGKAPELLIYAPSSFQSGVPSRFRGSGSGTDFTLTISSLQPEDFATYYCQQSYSTPFTFGPGTKVDIK ?
### Response 2650
